# procedure_text: Solubility measurements of Forms I and II in aqueous acetonitrile (HPLC, equilibrium plateau)
# Assay type: physicochemical
# condition_context: aqueous acetonitrile, 45 °C, organic solvent or mixture, thermodynamic from solid, aqueous acetonitrile, water concentration 10 v/v %, 45 °C; read-out: Solubility
Structures can show the parent of a compound that is named as a salt.
measure_name: solubility
Lab note: write values as number then unit, every time.

The compound listed as O=C(N[C@H]1CN2CCC1CC2)c1cc2cccc(Cl)c2s1 [Form I, hydrochloride monohydrate] has a reported solubility of 71.6 mg/mL

###

# procedure_text: Solubility measurements of Forms I and II in aqueous acetonitrile (HPLC, equilibrium plateau)
# Assay type: physicochemical
# condition_context: aqueous acetonitrile, 5 °C, organic solvent or mixture, thermodynamic from solid, aqueous acetonitrile, water concentration 6 v/v %, 5 °C; read-out: Solubility
# Method: Solubility of Forms I and II was measured at various temperatures between 5° C. and 45° C. in aqueous acetonitrile in which water concentration was from 0 to 10 v/v % respectively. Solubility was measured according to the following procedure. Form I or II crystals and an aqueous acetonitrile were added to a glass vessel. […] The liquid phase was sampled periodically, and the concentration of the compound was measured with high performance liquid chromatography (HPLC). […]
Where a name gives a salt, the structure may show the parent alone.
measure_name: solubility
Put down the number, then write its unit next to it.

Memo: O=C(N[C@H]1CN2CCC1CC2)c1cc2cccc(Cl)c2s1 [Form I, hydrochloride monohydrate] , reported solubility: 12.8 mg/mL

###

# procedure_text: Solubility measurements of Forms I and II in aqueous acetonitrile (HPLC, equilibrium plateau)
# Format: physicochemical
# condition_context: aqueous acetonitrile, 45 °C, organic solvent or mixture, thermodynamic from solid, aqueous acetonitrile, water concentration 6 v/v %, 45 °C; read-out: Solubility
Counter-ions that a name gives are not always drawn.
measure_name: solubility (mg/mL)
Report the value in mg/mL with no unit label.

Briefly, solubility measured for O=C(N[C@H]1CN2CCC1CC2)c1cc2cccc(Cl)c2s1 [Form I, hydrochloride monohydrate] : 27.2

###

# procedure_text: Solubility measurements of Forms I and II in aqueous acetonitrile (HPLC, equilibrium plateau)
# Format: physicochemical
# condition_context: aqueous acetonitrile, 37.5 °C, organic solvent or mixture, thermodynamic from solid, aqueous acetonitrile, water concentration 3.5 v/v %, 37.5 °C; read-out: Solubility
Where a name gives a salt, the structure may show the parent alone.
measure_name: solubility (µg/mL)
Give just the number in µg/mL; leave the unit off.

Just so you know, measured solubility for O=C(N[C@H]1CN2CCC1CC2)c1cc2cccc(Cl)c2s1 [Form I, hydrochloride monohydrate] came out at 10000

###

# procedure_text: Solubility in water (shaking 20 minutes, HPLC UV 210 nm)
# Format: physicochemical
# condition_context: 25 °C, thermodynamic from solid
Structures can show the parent of a compound that is named as a salt.
measure_name: solubility at 20 min (mg/mL)
Write the answer as a number in mg/mL, unit excluded.

Item: O=C(N[C@H]1CN2CCC1CC2)c1cc2cccc(Cl)c2s1 [Form I, hydrochloride monohydrate] | solubility at 20 min: 39

All values here come from patent US9550767B2.
